// data source = the kinase profiling compilation of Christmann-Franck et al. (2016)

measurement-target: GSK3B (human)
method: radiometric filter-binding kinase assay, Kinase HotSpot
condition-info: compound 0.5 µM; ATP 10 µM
test-readout: residual activity (%)
// units = %; emit number, no label

Entry under review: CC(C)c1nn(-c2c(Cl)cccc2Cl)c2nc(Cc3ccc(OCCO)cc3)nc(O)c12 . Reported residual activity?
47.1

Entry under review: COc1ccc(CNC(=O)Nc2ncc([N+](=O)[O-])s2)cc1 . Reported residual activity?
40.2

Entry under review: COc1cc2ncc(-c3ccccc3)nc2cc1OC . Reported residual activity?
113

Entry under review: Nc1nccc(-c2c(-c3ccc(F)cc3)ncn2C2CCNCC2)n1 . Reported residual activity?
101

Entry under review: COc1ccc(OC)c2c(=S)c3ccccc3[nH]c12 . Reported residual activity?
61.3

Entry under review: CC(C)[C@H](CO)Nc1nc(Nc2cc(N)cc(Cl)c2)c2ncn(C(C)C)c2n1 . Reported residual activity?
103

Entry under review: Nc1nnc2[nH]c3ccccc3nc1-2 . Reported residual activity?
99.7

Entry under review: Cn1sc(=O)n(Cc2ccccc2)c1=O . Reported residual activity?
114

Entry under review: O=C(O)/C=C/c1cc(Br)c(Br)c(Br)c1Br . Reported residual activity?
105

Entry under review: COc1cc2ncnc(N3CCN(C(=O)Nc4ccc(Oc5ccccc5)cc4)CC3)c2cc1OC . Reported residual activity?
99

Entry under review: CN([C@@H](Cc1ccc(OS(=O)(=O)c2cccc3cnccc23)cc1)C(=O)N1CCN(c2ccccc2)CC1)S(=O)(=O)c1cccc2cnccc12 . Reported residual activity?
96.6

Entry under review: CCN(CC)CCCCN1c2ccccc2Oc2ccc(Cl)cc21 . Reported residual activity?
113

Entry under review: Cc1nc2cc3nc(-c4cccs4)cnc3cc2n1C . Reported residual activity?
109

Entry under review: O=C(CCCc1ccc(-c2ccccc2F)cc1)Nc1ccc(O)cc1 . Reported residual activity?
99.4

Entry under review: Cn1cnc2cc3c(Nc4cccc(Br)c4)ncnc3cc21 . Reported residual activity?
101

Entry under review: O=C1NC(=O)/C(=C\c2ccc3nccnc3c2)S1 . Reported residual activity?
93.4
